Test: activation of miR-122 Renilla sensor silencing – cell-based, Huh7 psiCHECK-miR122, Renilla luciferase, cherry-picked, dose response (AID 651956);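 also: Renilla luciferase from a miR-122 sensor reporter so lower signal means miR-122 activation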
Details: Huh7 psiCHECK-miR122 Renilla luciferase reporter, 48 h; series mostly up to 35 µM
Entries with a potency or affinity are not part of this list. Inconclusive results are not listed. Active and inactive are the calls of the source.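 The calls were made as follows: active = in every test run, a fitted half-maximal concentration for signal decrease at or below twice the highest tested concentration; inconclusive = runs disagree, flat 30 to 70% decrease, or poor fit; inactive = the rest.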

- compound: "CCOC(=O)CSc1nnnn1-c1cccc2ccccc12"
  outcome: "inactive"
- compound: "CNC(=O)C[C@@H]1CC[C@@H]2[C@@H](COc3ccc(NC(=O)c4ccccc4F)cc3C(=O)N2C)O1"
  outcome: "inactive"
- compound: "CN(C[C@H]1N[C@@H](CO)[C@@H]1c1ccc(C2=CCCC2)cc1)C(=O)c1ccccn1"
  outcome: "inactive"
- compound: "CCC(=O)N1[C@H](CO)[C@H]2c3ccccc3N(C(=O)CC(F)(F)F)C[C@H]21"
  outcome: "inactive"
- compound: "NC(=O)c1csc(-c2ccncc2)n1"
  outcome: "inactive"
- compound: "CC1CCN(CCc2nc3cc(NC(=O)Nc4ccccc4)ccc3n2C)CC1"
  outcome: "inactive"
- compound: "CCOc1ccc(C(CCc2ccccc2)NC(=O)c2ccccc2F)cc1OCC (stereo unspecified)"
  outcome: "inactive"
- compound: "COc1cc(Cl)cc(/C=N\\NC(=O)c2ccc3c(c2)OCO3)c1O"
  outcome: "inactive"
- compound: "CN1CCN(c2ccc(Cl)cc2NC(=O)c2ccc(S(=O)(=O)N3CCCCCC3)cc2)CC1"
  outcome: "inactive"
- compound: "COCC(=O)NC[C@@H]1[C@H](c2ccc(C3=CCCC3)cc2)[C@@H](CO)N1C(=O)C1CC1"
  outcome: "inactive"
- compound: "CCCC(=O)Nc1ccc2c(c1)C(=O)N(C)[C@@H]1CC[C@H](CC(=O)NCCOC)O[C@H]1CO2"
  outcome: "inactive"
- compound: "COC(=O)C[C@@H]1CC[C@@H]2[C@@H](COc3ccc(NC(=O)Nc4cccc(C#N)c4)cc3C(=O)N2C)O1"
  outcome: "inactive"
- compound: "COC(=O)C[C@H]1CC[C@@H]2[C@@H](COc3ccc(NC(=O)c4ccc(F)c(F)c4)cc3C(=O)N2C)O1"
  outcome: "inactive"
- compound: "C/C=C/c1ccc([C@H]2[C@@H](CO)N(C(=O)C3CC3)[C@H]2CN(C)C(=O)CC2CC2)cc1"
  outcome: "inactive"
- compound: "O=C(c1ccco1)N1CCN(C2CC(=O)N(c3ccccc3)C2=O)CC1 (stereo unspecified)"
  outcome: "inactive"
- compound: "C[C@H]1CN([C@@H](C)CO)S(=O)(=O)c2ccc(-c3ccccc3F)cc2O[C@@H]1CN(C)Cc1cccnc1"
  outcome: "inactive"
- compound: "Cc1ccc(-n2c(Cc3ccccc3)n[nH]c2=S)cc1"
  outcome: "inactive"
- compound: "COc1ccc(NC(=O)N(C)C[C@H]2Oc3cc(C#CCC(C)C)ccc3S(=O)(=O)N([C@@H](C)CO)C[C@H]2C)cc1"
  outcome: "inactive"
- compound: "CC(=O)Nc1ccc2c(c1)C(=O)N(C)[C@H]1CC[C@H](CC(=O)Nc3ccccc3Cl)O[C@@H]1CO2"
  outcome: "inactive"
- compound: "CC(=O)c1ccc(Nc2nc3ccc(C)cc3n3cnnc23)cc1"
  outcome: "inactive"
- compound: "Cc1ccccc1NCN1C(=O)C2C3C=CC(C3)C2C1=O (stereo unspecified)"
  outcome: "inactive"
- compound: "COCC(=O)N1[C@H](CO)[C@@H](c2ccccc2)[C@H]1CN(C)C(=O)c1ccncc1"
  outcome: "inactive"
- compound: "CN1C(=O)c2cc(NC(=O)C3CCOCC3)ccc2OC[C@H]2O[C@H](CC(=O)NCc3ccc4c(c3)OCO4)CC[C@@H]21"
  outcome: "inactive"
- compound: "CNC(=O)C[C@@H]1CC[C@@H]2[C@H](COc3ccc(NC(=O)c4cccc(OC)c4)cc3C(=O)N2C)O1"
  outcome: "inactive"
- compound: "CCOC(=O)c1nc(C)n(-c2ccc(Cl)cc2Cl)n1"
  outcome: "inactive"
- compound: "Cc1cccc(NC(=O)Nc2ccc3c(c2)C(=O)N(C)[C@H]2CC[C@@H](CC(=O)NCc4ccccc4Cl)O[C@H]2CO3)c1"
  outcome: "inactive"
- compound: "Cc1cc2n(n1)C(c1cn(-c3ccccc3)nc1C)Nc1c(C)cccc1-2 (stereo unspecified)"
  outcome: "inactive"
- compound: "CN1C(=O)c2cc(NS(=O)(=O)c3cccc(F)c3)ccc2OC[C@H]2O[C@@H](CC(=O)NCCN3CCCCC3)CC[C@H]21"
  outcome: "inactive"
- compound: "COCC(=O)Nc1ccc2c(c1)C(=O)N(C)[C@@H]1CC[C@@H](CC(=O)OC)O[C@@H]1CO2"
  outcome: "inactive"
- compound: "Cc1cc(C(=O)Nc2ccc3c(c2)C(=O)N(C)[C@H]2CC[C@@H](CC(=O)N[C@@H](C)c4ccccc4)O[C@H]2CO3)no1"
  outcome: "inactive"
- compound: "O=C(Nc1ccc(F)cc1)N1C[C@@H]2[C@H](c3ccccc31)[C@H](CO)N2C(=O)Cc1ccccc1"
  outcome: "inactive"
- compound: "CO[C@@H]1CN(C)C(=O)c2ccc(NS(=O)(=O)c3cccc(F)c3)cc2OC[C@@H](C)NC[C@H]1C"
  outcome: "inactive"
- compound: "COCCN(C[C@H]1[C@@H](c2ccccc2)[C@H](CO)N1C(=O)C1CCC1)C(C)=O"
  outcome: "inactive"
- compound: "CN1C(=O)c2cc(NC(=O)c3cccc(F)c3)ccc2OC[C@H]2O[C@H](CC(=O)NC3CCC3)CC[C@@H]21"
  outcome: "inactive"
- compound: "COCCNC(=O)C[C@H]1CC[C@@H]2[C@H](COc3ccc(NC(=O)C4CCOCC4)cc3C(=O)N2C)O1"
  outcome: "inactive"
- compound: "CN1C(=O)c2cc(NC(=O)c3ccc4c(c3)OCO4)ccc2OC[C@H]2O[C@H](CC(=O)O)CC[C@@H]21"
  outcome: "inactive"
